- reported_conditions: in water, 318.2 K
endpoint_label: solubility (mole fraction)
Write no unit; give the number alone.

Please report the recorded solubility (mole fraction) for CC1=CC(=O)C(C(C)C)=CC1=O .
0.000152

----------
- reported_conditions: in propylene glycol, 303.2 K
endpoint_label: solubility (mole fraction)
Write no unit; give the number alone.

Please report the recorded solubility (mole fraction) for CC1=CC(=O)C(C(C)C)=CC1=O .
0.0069

----------
- reported_conditions: in methanol, 318.2 K
endpoint_label: solubility (mole fraction)
Write no unit; give the number alone.

Please report the recorded solubility (mole fraction) for CC1=CC(=O)C(C(C)C)=CC1=O .
0.0182

----------
- reported_conditions: in PEG-400, 303.2 K
endpoint_label: solubility (mole fraction)
Write no unit; give the number alone.

Please report the recorded solubility (mole fraction) for CC1=CC(=O)C(C(C)C)=CC1=O .
0.042
